Reference source for all entries: ChEMBL document CHEMBL1131510

- Test target: Fatty-acid amide hydrolase 1 (Homo sapiens)
- Sequence (O00519 whole entry): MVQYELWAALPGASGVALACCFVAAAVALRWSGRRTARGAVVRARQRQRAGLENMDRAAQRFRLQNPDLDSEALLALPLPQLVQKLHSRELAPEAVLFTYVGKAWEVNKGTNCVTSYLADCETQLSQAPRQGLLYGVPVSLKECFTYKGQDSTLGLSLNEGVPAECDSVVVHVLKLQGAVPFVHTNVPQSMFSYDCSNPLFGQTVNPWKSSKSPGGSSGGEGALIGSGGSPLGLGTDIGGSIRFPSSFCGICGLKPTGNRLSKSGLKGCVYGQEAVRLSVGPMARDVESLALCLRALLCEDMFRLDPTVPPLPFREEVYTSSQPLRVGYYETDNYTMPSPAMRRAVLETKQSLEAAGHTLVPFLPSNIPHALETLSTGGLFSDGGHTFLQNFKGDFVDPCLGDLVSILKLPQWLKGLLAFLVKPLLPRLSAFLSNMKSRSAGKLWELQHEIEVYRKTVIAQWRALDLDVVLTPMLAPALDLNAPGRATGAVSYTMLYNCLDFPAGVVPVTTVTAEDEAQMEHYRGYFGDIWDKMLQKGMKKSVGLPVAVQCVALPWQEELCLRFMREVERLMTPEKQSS
- Protocol notes: Concentration required to inhibit fatty acid amide hydrolase (FAAH) at pH 7.0
Entries and their IC50 values follow.
# value in µM; strip the unit string

Check out these entries, answers already filled in.
CCCCCCCC/C=C\CCCCCCCC(=O)C(F)(F)F = 9.9
CCCCCCCC/C=C\CCCCOC(=O)CC(=O)CBr = 2.5
CCCCCC[C@@H](C)OC(=O)CC(=O)CCl = 0.7

Now look at this entry.
So what's the measured IC50 for this one? "CCCCCCCC/C=C\CCCCCCCC(=O)CBr"
5.3
